Consider the following compounds; for each one, report its composite z-score.
# System: Noggin (protein binding on small-molecule microarray)
# methodNotes: Noggin binders on small-molecule microarray, primary screen, biochemical, 635/667 nm fluorescence (AID 1095);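 further: score merges 667 nm feature fluorescence with signal to noise over triplicate slides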
# conditionInfo: 635 nm fluorescence, higher = more signal
Respond with the number and no other words.

Task item: # returns recorded composite z-score (system: Noggin (protein binding on small-molecule microarray)) for [N-]=[N+]=NCc1ccccc1C[C@@]1(C(=O)NCCN2CCOCC2)N=C(c2ccc(OCCCO)cc2)O[C@@H]1c1ccccc1
Reply: 0.565

Task item: # returns recorded composite z-score (system: Noggin (protein binding on small-molecule microarray)) for CC[C@@H]1C=C(C(=O)O)[C@H](c2cccc(Cl)c2)N1S(=O)(=O)c1ccc(C)cc1
Reply: -0.791

Task item: # returns recorded composite z-score (system: Noggin (protein binding on small-molecule microarray)) for CC(CO)N1C(=O)[C@@H]2[C@H]3C(=O)OCC=C[C@H]3OC23C=CCN(c2ccc4ccccc4c2)C(=O)[C@@H]13 (some centres not stated)
Reply: -1.89

Task item: # returns recorded composite z-score (system: Noggin (protein binding on small-molecule microarray)) for NCCCCCCNC(=O)[C@@H]1C[C@@H]2C(=O)NCC(=O)N2[C@@H]1c1cccc(OCCO)c1
Reply: 1.12

Task item: # returns recorded composite z-score (system: Noggin (protein binding on small-molecule microarray)) for C=CCNC(=O)[C@@H]1[C@H]2C(=O)O[C@H](c3ccccc3)[C@H](c3ccccc3)N2[C@H](c2ccc(OCCO)cc2)[C@@]12C(=O)Nc1ccc(C#CC3=CCCCC3)cc12
Reply: 0.918

Task item: # returns recorded composite z-score (system: Noggin (protein binding on small-molecule microarray)) for C=C(COC)/C(=C/C[C@@H](OC(C)=O)c1cccc(OCCO)c1)c1cnc2ccccc2c1
Reply: 0.822

Task item: # returns recorded composite z-score (system: Noggin (protein binding on small-molecule microarray)) for CC(C)c1ccc(NN2C(C(O)C(C)c3ccccc3)C=CC3C(=O)N(c4ccccc4)C(=O)C32)cc1 (configuration not stated)
Reply: 0.272

Where do the numbers come from? From PubChem BioAssay.
